ASSAYED SYSTEM: T1, human IL-12 (human, UniProt P29459 23-219; P29460 23-328)
T1 construct: recombinant human IL-12 heterodimer (p35/p40, disulfide-linked); also called hIL-12; rhIL-12
T1 sequence (looked up) 1: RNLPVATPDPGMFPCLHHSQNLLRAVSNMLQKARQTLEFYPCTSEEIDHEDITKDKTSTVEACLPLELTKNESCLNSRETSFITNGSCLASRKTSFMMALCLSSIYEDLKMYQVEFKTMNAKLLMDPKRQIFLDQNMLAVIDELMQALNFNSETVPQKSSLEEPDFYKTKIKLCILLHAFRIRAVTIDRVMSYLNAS
T1 sequence (looked up) 2: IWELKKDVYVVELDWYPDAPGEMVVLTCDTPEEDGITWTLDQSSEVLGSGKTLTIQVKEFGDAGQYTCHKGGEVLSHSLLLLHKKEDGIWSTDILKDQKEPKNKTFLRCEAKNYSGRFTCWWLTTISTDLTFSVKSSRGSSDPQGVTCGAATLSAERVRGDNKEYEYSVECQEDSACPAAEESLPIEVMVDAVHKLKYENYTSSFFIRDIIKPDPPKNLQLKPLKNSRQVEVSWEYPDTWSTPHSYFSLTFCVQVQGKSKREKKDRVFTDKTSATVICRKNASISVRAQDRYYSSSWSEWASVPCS
TEST NAME: RB assay: 125I-hIL-12 binding to PHA blasts
Answer each item with its documented IC50.
One number for each entry, in nM.

Consider the worked cases shown below.
# BINDER, RESULT
data = [
    ("149-4 (scFv, V domains shown, scFv) VH: QVQLVQSGGGVVQPGRSLRLSCAASGFTFSSYGMHWVRQAPGKGLEWVAFIRYDGSNKYYADSVKGRFTISRDNSKNTLYLQMKSLRAEDTAVYYCTTHGSHDNWSQGTMVTVSS VL: SYVLTQPPSVSGTPGQRVTISCSGGRSNIGSNTVKWYQQLPGTAPKLLIYGNDQRPSGVPDRFSGSKSGTSASLAITGVQAEDEADYYCQSYDRGFTGSRVFGTGTKVTVL", 0.08),
    ("170-25 (scFv, V domains shown, scFv) VH: QVQLVQSGGGVVQPGRSLRLSCAASGFTFSSYGMHWVRQAPGKGLEWVAFIRYDGSNKYYADSVKGRFTISRDNSKNTLYLQMKSLRAEDTAVYYCTTHGSQDTWGQGTMVTVSS VL: SYVLTQPPSVSGTPGQRVTISCSGGRSNIGSNTVKWYQQLPGTAPKLLIYGNDQRPSGVPDRFSGSKSGTSASLAITGVQAEDEADYYCQSYDSSLRGSRVFGTGTKVTVL", 0.05),
]

Specify measured IC50 for 103-7 (scFv, V domains shown, scFv) VH: QVQLVQSGGGVVQPGRSLRLSCAASGFTFSSYGMHWVRQAPGKGLEWVAFIRYDGSNKYYADSVKGRFTISRDNSKNTLYLQMKSLRAEDTAVYYCTTHGSHDDWGQGTMVTVSS VL: SYVLTQPPSVSGTPGQRVTISCSGGRSNIGSNTVKWYQQLPGTAPKLLIYGNDQRPSGVPDRFSGSKSGTSASLAITGVQAEDEADYYCQSYDRDFTGTRVFGTGTKVTVL .
0.14
